// data source = ChEMBL document CHEMBL1157486

- study system: Vitamin D3 receptor (Rattus norvegicus) (UniProt P13053)
- Sequence (P13053 whole entry): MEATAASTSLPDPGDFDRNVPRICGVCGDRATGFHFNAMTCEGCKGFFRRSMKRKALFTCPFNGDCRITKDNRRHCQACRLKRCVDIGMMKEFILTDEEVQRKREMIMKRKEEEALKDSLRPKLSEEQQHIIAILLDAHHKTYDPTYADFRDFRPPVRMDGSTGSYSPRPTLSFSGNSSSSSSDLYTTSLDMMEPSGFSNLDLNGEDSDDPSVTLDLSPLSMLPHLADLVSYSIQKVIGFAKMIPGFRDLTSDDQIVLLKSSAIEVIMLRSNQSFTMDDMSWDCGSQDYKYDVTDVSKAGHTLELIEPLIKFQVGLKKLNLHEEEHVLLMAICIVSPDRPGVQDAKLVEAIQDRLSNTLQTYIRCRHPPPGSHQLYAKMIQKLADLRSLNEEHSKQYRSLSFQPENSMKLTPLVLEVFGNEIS
- test name: Displacement of [3H]1-alpha,25-(OH)2D3 from rat recombinant VDR expressed in Escherichia coli BL21 (DE3)
experimental readout: Activity (%)

Answered examples (3):
[[record]]
smi = "CCC(O)(CC)CCS[C@@H](C)C1=CC[C@H]2/C(=C/C=C3C[C@@H](O)C[C@H](O)C3)CCC[C@]12C"
measurement_units = "%"
data_value = 100

[[record]]
smi = "CCC(O)(CC)CCCS[C@@H](C)C1=CC[C@H]2/C(=C/C=C3C[C@@H](O)C[C@H](O)C3)CCC[C@]12C"
measurement_units = "%"
data_value = 100

[[record]]
smi = "CCC(O)(CC)CS[C@H](C)C1=CC[C@H]2/C(=C/C=C3C[C@@H](O)C[C@H](O)C3)CCC[C@]12C"
measurement_units = "%"
data_value = 6


[P] C=C1/C(=C\C=C2/CCC[C@]3(C)[C@@H]([C@H](C)CCCC(C)(C)O)CC[C@@H]23)C[C@@H](O)C[C@@H]1O
[Q] CCC(O)(CC)CS[C@@H](C)C1=CC[C@H]2/C(=C/C=C3C[C@@H](O)C[C@H](O)C3)CCC[C@]12C
[R] CCC(O)(CC)CCCS[C@H](C)C1=CC[C@H]2/C(=C/C=C3C[C@@H](O)C[C@H](O)C3)CCC[C@]12C
[S] CCC(O)(CC)CCS[C@H](C)C1=CC[C@H]2/C(=C/C=C3C[C@@H](O)C[C@H](O)C3)CCC[C@]12C
Falling order of Activity, please. Enter labels, ranked according to the request.
P, Q, R, S
(P: 100%, Q: 60%, R: 8%, S: 4%)

###

- study system: Vitamin D3 receptor (Homo sapiens) (UniProt P11473)
- test name: Increase in human VDR-mediated transcriptional activity in african green monkey COS7 cells after 24 hrs by luciferase assay
experimental readout: EC50 (pM)

Answered examples (3):
[[record]]
compound = "[H][C@@]12CC=C([C@@H](C)SCC(O)(CC)CC)[C@@]1(C)CCC/C2=C\\C=C1\\C[C@@H](O)[C@H](OCCO)[C@H](O)C1 (some centres not stated)"
study_system = "Vitamin D3 receptor (Homo sapiens) (UniProt P11473)"
data_value = 115

[[record]]
compound = "CCC(O)(CC)CSC(C)C1=CCC2/C(=C/C=C3/C[C@@H](O)[C@H](OCCO)[C@H](O)C3)CCC[C@]12C (some centres not stated)"
study_system = "Vitamin D3 receptor (Homo sapiens) (UniProt P11473)"
data_value = 27

[[record]]
compound = "CCC(O)(CC)CSC(C)C1=CCC2/C(=C/C=C3\\C[C@@H](O)[C@H](OCCO)[C@H](O)C3)CCC[C@]12C (some centres not stated)"
study_system = "Vitamin D3 receptor (Homo sapiens) (UniProt P11473)"
data_value = 2.1


[A] [H][C@@]12CC=C([C@@H](C)SCC(O)(CC)CC)[C@@]1(C)CCC/C2=C\C=C1/C[C@@H](O)[C@H](OCCO)[C@H](O)C1 (some centres not stated)
[B] [H][C@@]12CC=C([C@@H](C)SCC(O)(CC)CC)[C@@]1(C)CCC/C2=C\C=C1/C[C@@H](O)[C@@](C)(O)[C@H](O)C1 (some centres not stated)
Lower value of EC50 belongs to which: A or B ? Select an item and report its label.
A

[I] [H][C@@]12CC=C([C@@H](C)SCC(O)(CC)CC)[C@@]1(C)CCC/C2=C\C=C1\C[C@@H](O)[C@@](C)(O)[C@H](O)C1 (some centres not stated)
[II] CCC(O)(CC)CSC(C)C1=CCC2/C(=C/C=C3/C[C@@H](O)[C@](C)(O)[C@H](O)C3)CCC[C@]12C (some centres not stated)
[III] CCC(O)(CC)CSC(C)C1=CCC2/C(=C/C=C3\C[C@@H](O)[C@](C)(O)[C@H](O)C3)CCC[C@]12C (some centres not stated)
Arrange items by their EC50 values in increasing order. Enter labels, ranked according to the request.
III, I, II
(III: 17 pM, I: 120 pM, II: 1900 pM)
